Give measured IC50 for each item. Keep answers brief.
- subject of test: UniProt Q9H0K1
- assay method text: SIK2 Enzymatic Assay High Version 2 (High ATP)
- Type: biochemical
- measurement conditions: enzyme 6 nM, 6 mM ATP and 400 μM HDAC5tide (each 2× final concentration); 30 minutes pre-incubation, 2 hours; ADP-Glo Max luminescence; read-out: SIK2 high ATP IC50 (μM) (Test Example 2)
Give a bare numeral; the unit µM is implied.

## Input # query: IC50 of entry Cc1cnc(Nc2cc3cc(-c4cc(C)ncc4OCC(C)(C)O)ccn3n2)cn1
## Output 0.0471

## Input # query: IC50 of entry Cc1cc(-c2ccn3nc(Nc4ccc(C)nn4)cc3c2)c(OC[C@]23C[C@H](CO2)N(C)C3)cn1
## Output 0.0198

## Input # query: IC50 of entry Cc1cc(-c2ccn3nc(NC(=O)C4CC4)cc3c2)c(OC[C@@]23C[C@@H](CO2)N(C)C3)cn1
## Output 0.0282

## Input # query: IC50 of entry Cc1cc(-c2ccn3nc(NC(=O)C4CC4)cc3c2)c(OC[C@@]2(O)CCN(C)C2)cn1 (single isomer, unassigned)
## Output 0.013

## Input # query: IC50 of entry Cc1cc(-c2ccn3nc(Nc4cc(C)nc(C(=O)NCC(F)(F)F)n4)cc3c2)c(OCC(C)(C)O)cn1
## Output 0.0734

## Input # query: IC50 of entry Cc1cc(Nc2cc3cc(-c4cc(O[C@H](C)C#N)ncc4OCC(C)(C)C#N)ccn3n2)nc(C)n1 (single isomer, unassigned)
## Output 0.0317

## Input # query: IC50 of entry Cc1cc(Nc2cc3cc(-c4cc(OCC#N)ncc4OC[C@H]4OCC[C@@H]4O)ccn3n2)nc(C)n1
## Output 0.0454

## Input # query: IC50 of entry Cc1cc(-c2ccn3nc(Nc4cc(C)nc(C)n4)cc3c2)c(OC[C@H](C)C(C)(C)O)cn1
## Output 0.0275

## Input # query: IC50 of entry CNc1nc(C)cc(Nc2cc3cc(-c4cc(O)ncc4OCC(C)(C)C#N)ccn3n2)n1
## Output 0.063

## Input # query: IC50 of entry Cc1cc(-c2ccn3nc(Nc4cc(C)c(=O)n(C)n4)cc3c2)c(O[C@H]2CC[C@H](O)CC2)cn1
## Output 0.00126

## Input # query: IC50 of entry Cc1cc(-c2ccn3nc(Nc4ccn(C)n4)cc3c2)c(OCC2(N)CC(F)(F)C2)cn1
## Output 0.0196

## Input # query: IC50 of entry Cc1cc(Nc2cc3cc(-c4cc(OC(F)(F)F)ccc4OCC(C)(C)C#N)ccn3n2)nc(C)n1
## Output 0.071

## Input # query: IC50 of entry Cc1cc(-c2ccn3nc(Nc4cccc(C)n4)cc3c2)c(OC[C@@H]2CNCCO2)cn1
## Output 0.00403

## Input # query: IC50 of entry Cc1cc(-c2ccn3nc(Nc4cc(C)nc(C)n4)cc3c2)c(OC[C@](C)(N)C(F)(F)F)cn1 (single isomer, unassigned) [Example 304]
## Output 0.0028

## Input # query: IC50 of entry Cc1cc(-c2ccn3nc(Nc4cccnn4)cc3c2)c(OC[C@@H]2CNCCO2)cn1
## Output 0.0128

###

- subject of test: SIK2 (Homo sapiens, UniProt Q9H0K1)
- Sequence (Q9H0K1 whole entry, species assumed): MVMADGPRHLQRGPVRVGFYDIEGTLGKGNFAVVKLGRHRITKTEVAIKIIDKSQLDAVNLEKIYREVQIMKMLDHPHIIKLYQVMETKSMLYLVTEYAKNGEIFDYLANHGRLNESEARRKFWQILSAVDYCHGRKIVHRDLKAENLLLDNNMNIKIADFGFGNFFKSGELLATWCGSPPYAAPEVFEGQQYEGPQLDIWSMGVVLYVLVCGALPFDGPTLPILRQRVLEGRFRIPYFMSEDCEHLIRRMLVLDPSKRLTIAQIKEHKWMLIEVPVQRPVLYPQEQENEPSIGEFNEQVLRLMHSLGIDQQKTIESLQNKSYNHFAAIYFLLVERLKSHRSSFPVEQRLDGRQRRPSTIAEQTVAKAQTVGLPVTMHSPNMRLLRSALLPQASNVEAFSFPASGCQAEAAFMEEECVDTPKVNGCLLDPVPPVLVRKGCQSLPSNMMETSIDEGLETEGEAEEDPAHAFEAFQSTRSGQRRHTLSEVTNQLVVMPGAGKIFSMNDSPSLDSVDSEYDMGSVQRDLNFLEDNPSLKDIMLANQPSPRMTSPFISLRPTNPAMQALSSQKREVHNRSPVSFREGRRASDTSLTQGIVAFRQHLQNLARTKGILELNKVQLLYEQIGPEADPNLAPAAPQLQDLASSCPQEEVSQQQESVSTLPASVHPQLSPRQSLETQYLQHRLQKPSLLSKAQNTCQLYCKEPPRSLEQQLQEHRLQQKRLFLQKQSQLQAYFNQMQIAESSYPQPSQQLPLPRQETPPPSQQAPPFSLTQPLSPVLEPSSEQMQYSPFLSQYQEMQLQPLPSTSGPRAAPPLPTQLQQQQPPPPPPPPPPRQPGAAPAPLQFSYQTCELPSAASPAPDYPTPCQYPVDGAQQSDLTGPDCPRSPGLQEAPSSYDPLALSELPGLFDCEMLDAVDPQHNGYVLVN
- assay method text: SIK2 Enzymatic Assay High Version 2 (High ATP)
- Type: biochemical
Give measured pIC50 for each item. Keep answers brief.
Note: pIC50 values are expressed as the negative base-10 logarithm of concentration in M.

## Input # query: pIC50 of entry Cc1cc(-c2ccn3nc(Nc4cccnc4)cc3c2)c(O[C@H]2CC[C@H](O)CC2)cn1 [Example 290]
## Output 7.08

## Input # query: pIC50 of entry Cc1cc(-c2ccn3nc(Nc4cc(C)nc(C)n4)cc3c2)c(O[C@H]2CC[C@H](O)CC2)nn1 [Example 488]
## Output 6.94

## Input # query: pIC50 of entry CNC(=O)c1c(OC)cc(Nc2cc3cc(-c4cc(C)ncc4OC4C[C@H]5COC[C@@H](C4)N5)ccn3n2)cc1OC (stereo partly shown) [Example 357]
## Output 9.00

## Input # query: pIC50 of entry CN1CCC[C@@H](COc2cnc(C#N)cc2-c2ccn3nc(NC(=O)C4CC4)cc3c2)C1 [Example 37]
## Output 6.95

## Input # query: pIC50 of entry CCNC(=O)c1ccc(Nc2cc3cc(-c4cc(C)ncc4O[C@H]4C[C@H]5COC[C@@H](C4)N5)ccn3n2)nn1 [Example 385]
## Output 8.92

## Input # query: pIC50 of entry Cc1cc(-c2ccn3nc(NC(=O)C4CC4)cc3c2)c(O[C@H]2C[C@H]3CC[C@@H](C2)N3C)cn1 [Example 138]
## Output 7.89

## Input # query: pIC50 of entry N#Cc1cc(-c2ccn3nc(NC(=O)C4CC4)cc3c2)c(OCC2CNC2)cn1 [Example 23]
## Output 7.79

###

- subject of test: SIK2 (Homo sapiens)
- assay method text: SIK2 Enzymatic Assay High Version 2 (High ATP)
- Type: biochemical
- measurement conditions: enzyme 6 nM, 6 mM ATP and 400 μM HDAC5tide (each 2× final concentration); 30 minutes pre-incubation, 2 hours; ADP-Glo Max luminescence; read-out: SIK2 high ATP IC50 (μM) (Test Example 2)
With a cut-off of 0.009 µM, any IC50 strictly below it is called Yes; any IC50 meeting it or above is called No.

## Input Please state whether IC50 is below 0.009 µM for Cc1cc(-c2ccn3nc(Nc4ccncn4)cc3c2)c(OC[C@@H]2CNCCO2)cn1
## Output No

## Input Please state whether IC50 is below 0.009 µM for Cc1cc(-c2ccn3nc(Nc4cc(C)nc(C5CC5)n4)cc3c2)c(OCC(C)(C)C#N)cn1
## Output Yes

## Input Please state whether IC50 is below 0.009 µM for Cc1cc(Nc2cc3cc(-c4cc(OCC(F)(F)F)ncc4O[C@H]4CC[C@H](O)CC4)ccn3n2)nc(C)n1
## Output No

## Input Please state whether IC50 is below 0.009 µM for Cc1cc(Nc2cc3cc(-c4cc(O[C@@H](C)C#N)ncc4OCC(C)(C)C#N)ccn3n2)nc(C)n1 (single isomer, unassigned)
## Output No

## Input Please state whether IC50 is below 0.009 µM for COc1cc(Nc2cc3cc(-c4cc(C)ncc4O[C@H]4CC[C@H](O)CC4)ccn3n2)cc(F)c1C(=O)NC1CC1
## Output No

## Input Please state whether IC50 is below 0.009 µM for COc1cc(Nc2cc3cc(-c4cc(C)ncc4O[C@H]4CC[C@H](O)CC4)ccn3n2)cc(OC)c1C(=O)NC(C)C
## Output No

## Input Please state whether IC50 is below 0.009 µM for Cc1cc(-c2ccn3nc(NC(=O)C4CC4)cc3c2)c(OCC(C)(N)C(F)(F)F)cn1 (single isomer, unassigned) [Example 159]
## Output No

## Input Please state whether IC50 is below 0.009 µM for CC#Cc1cc(-c2ccn3nc(Nc4ccn(C)n4)cc3c2)c(OC[C@H]2OCC[C@@H]2O)cn1
## Output Yes

## Input Please state whether IC50 is below 0.009 µM for Cc1cc(Nc2cc3cc(-c4cc(Cl)ncc4OC[C@@H]4CNCCO4)ccn3n2)nc(C)n1
## Output No

## Input Please state whether IC50 is below 0.009 µM for Cc1cc(-c2ccn3nc(Nc4cc(C)nc(N5CCOCC5)n4)cc3c2)c(O[C@H]2CC[C@H](O)CC2)cn1
## Output Yes

## Input Please state whether IC50 is below 0.009 µM for Cc1cc(-c2ccn3nc(Nc4cc(C)c(=O)n(C5CC5)n4)cc3c2)c(O[C@H]2CC[C@H](O)CC2)cn1
## Output Yes

## Input Please state whether IC50 is below 0.009 µM for Cc1cc(-c2ccn3nc(Nc4cc(C)nc(C)n4)cc3c2)c(OCCC(C)(C)O)cn1
## Output No

## Input Please state whether IC50 is below 0.009 µM for CC(C)(C#N)COc1cnc(OC(F)F)cc1-c1ccn2nc(Nc3ccc(CN4CCOCC4)cn3)cc2c1
## Output No

## Input Please state whether IC50 is below 0.009 µM for Cc1cc(-c2ccn3nc(Nc4cc(C)nc(C)n4)cc3c2)c(O[C@H]2COC[C@H]2C)cn1 (single isomer, unassigned)
## Output No

## Input Please state whether IC50 is below 0.009 µM for Cc1cnc(Nc2cc3cc(-c4cc(C)ncc4OC[C@]45C[C@H](CO4)N(C)C5)ccn3n2)cn1
## Output No

## Input Please state whether IC50 is below 0.009 µM for Cc1cc(-c2ccn3nc(Nc4ccc(C5CC5)nn4)cc3c2)c(OC[C@@]23CN[C@@H](CO2)C3)cn1
## Output Yes

## Input Please state whether IC50 is below 0.009 µM for Cc1cc(Nc2cc3cc(-c4cc(Cl)ncc4OC[C@]45CN[C@H](CO4)C5)ccn3n2)nc(C)n1
## Output Yes

## Input Please state whether IC50 is below 0.009 µM for Cc1cc(-c2ccn3nc(Nc4cc(C)nc(C)n4)cc3c2)c(OC2CCC(S(C)(=O)=O)CC2)cn1 (stereo not shown)
## Output Yes

## Input Please state whether IC50 is below 0.009 µM for Cc1cc(-c2ccn3nc(Nc4ccc(C5CC5)nn4)cc3c2)c(OC[C@]23C[C@H](CO2)N(C)C3)cn1
## Output No

## Input Please state whether IC50 is below 0.009 µM for Cc1cc(-c2ccn3nc(Nc4cc(C)nc(C)n4)cc3c2)c(OC[C@@H]2CCS(=O)(=O)C2)cn1 (single isomer, unassigned)
## Output No

## Input Please state whether IC50 is below 0.009 µM for CC#Cc1cc(-c2ccn3nc(Nc4cc(C)nc(C)n4)cc3c2)c(N[C@H]2CC[C@@H](O)CC2)cn1
## Output No

## Input Please state whether IC50 is below 0.009 µM for Cc1cc(Nc2cc3cc(-c4cc(NCC(F)F)ncc4OCC(C)(C)C#N)ccn3n2)nc(C)n1
## Output No

## Input Please state whether IC50 is below 0.009 µM for Cc1cnc(Nc2cc3cc(-c4cc(OC(F)F)ncc4OCC(C)(C)C#N)ccn3n2)cn1
## Output Yes

## Input Please state whether IC50 is below 0.009 µM for Cc1cnc(Nc2cc3cc(-c4cc(C)ncc4OC[C@]45CN[C@H](CO4)C5)ccn3n2)cn1
## Output Yes

## Input Please state whether IC50 is below 0.009 µM for CC(C)(C#N)COc1cnc(OCC(F)F)cc1-c1ccn2nc(Nc3cnccn3)cc2c1
## Output Yes

## Input Please state whether IC50 is below 0.009 µM for CC(C)(C#N)COc1cnc(OC(F)F)cc1-c1ccn2nc(Nc3cc4c(cn3)CNCC4)cc2c1
## Output No

## Input Please state whether IC50 is below 0.009 µM for Cc1cc(-c2ccn3nc(Nc4cc(C)nc(N5CCCC5)n4)cc3c2)c(O[C@H]2CC[C@H](O)CC2)cn1
## Output Yes
